What pIC50 was measured for each of the following?
Tested on: TNF release
Assay: TNF assay: TNF release from LPS-stimulated human PBMCs (TNF ELISA)
Format: cell-based
Conditions: PBMC; human PBMCs; compounds 2 hours before LPS (10 ng/ml) for 18 hours; supernatant TNF ELISA; read-out: IC50 (TNF assay)
pIC50: −log10 of the molar value.

COMPOUND	OUTCOME_MEASURE	VALUE
CC1Oc2cc(S(=O)(=O)Nc3ccc(F)cc3)c(Cl)cc2NC1=O (centres unmarked)	pIC50	5.00 to 6.00
CCS(=O)(=O)c1cc2c(c(S(=O)(=O)Nc3ccc(C)cc3)c1)OCC(=O)N2	pIC50	< 5.00
CC1Oc2cc(S(=O)(=O)Nc3ccc(C#N)cc3)c(Br)cc2N(C)C1=O (centres unmarked)	pIC50	< 5.00
O=c1c(S(=O)(=O)c2ccc(F)c(F)c2)c[nH]c2ccc(Cl)nc12	pIC50	< 5.00

Moving on to another compound below.
Exam item: Input CCC1Oc2c(cc(Br)cc2S(=O)(=O)Nc2cccc(F)c2)NC1=O (centres unmarked) , output reported pIC50.
Marked response: < 5.00

* * *

Test system: NF-κB
Assay: NF-κB assay: THP1-NF-κB-LUC cells, LPS-stimulated secreted luciferase
Assay type: cell-based
Conditions: THP1-NF-κB-LUC cells; compounds 2 hours before LPS (10 ng/mL) for 18 hours; secreted luciferase; read-out: IC50 (NF-κB assay)
What IC50 was measured for each of the following?

As a guide, the following entries are already answered.
COMPOUND	OUTCOME_MEASURE	VALUE
CCc1ccc(NS(=O)(=O)c2cc(Br)cc3c2OC(CC(C)C)C(=O)N3)cc1 (stereo not drawn)	IC50	100 to 1000 nM
N#Cc1cccc(S(=O)(=O)c2cc3cc(Br)ccc3oc2=O)c1	IC50	> 10000 nM
Cc1c(Cl)cc2c(c1S(=O)(=O)Nc1ccc(OC(F)(F)F)cc1)OCC(=O)N2	IC50	< 100 nM
Cc1ccc(F)c2[nH]cc(S(=O)(=O)c3ccc(F)c(F)c3)c(=O)c12	IC50	< 100 nM
CCc1ccc(NS(=O)(=O)c2cc3c(cc2Cl)NC(=O)C(C)O3)cc1 (stereo not drawn)	IC50	< 100 nM

Please give IC50, item by item, for the list that follows.
1. COc1cc2c(=O)c(S(=O)(=O)c3ccc(Cl)cc3)cn(Cc3ccccc3F)c2cc1OC
2. CCC1Oc2cc(S(=O)(=O)Nc3ccccc3)c(Br)cc2N(C)C1=O (stereo not drawn)
3. O=C1COc2cc(S(=O)(=O)Nc3ccc(Cl)cc3)c(Cl)cc2N1
4. CCC1Oc2cc(S(=O)(=O)Nc3ccc(OC(F)(F)F)cc3)c(Br)cc2N(C)C1=O (stereo not drawn)
5. O=c1c(S(=O)(=O)c2ccc(F)c(F)c2)c(O)[nH]c2ncccc12
6. COc1ccc(OC)c(NS(=O)(=O)c2cc3c(cc2C)NC(=O)CO3)c1
7. Cc1ccc(NS(=O)(=O)c2cc(Br)cc3c2OC(C)C(=O)N3C)cc1Cl (stereo not drawn)

Marked response:
> 10000 nM
100 to 1000 nM
< 100 nM
< 100 nM
1000 to 10000 nM
> 10000 nM
< 100 nM

Please give IC50, item by item, for the list that follows.
1. Cc1ccc(Cl)c2c(=O)c(S(=O)(=O)c3ccc(F)c(F)c3)c[nH]c12
2. CCC1Oc2c(cc(Br)cc2S(=O)(=O)Nc2ccc(OC(F)(F)F)cc2)N(C)C1=O (stereo not drawn)
3. CCc1ccc(NS(=O)(=O)c2cc(Cl)cc3c2OC(C)C(=O)N3)cc1 (stereo not drawn)
4. COc1ccc(NS(=O)(=O)c2cc3c(cc2Br)NC(=O)CO3)cc1Cl
5. Cc1cc2c(cc1S(=O)(=O)Nc1ccc(Cl)cc1)OCCN2C
6. CC1Oc2c(cc(Br)cc2S(=O)(=O)Nc2ccc(OC(F)(F)F)cc2)N(C)C1=O (stereo not drawn)

Marked response:
["< 100 nM", "< 100 nM", "< 100 nM", "> 10000 nM", "1000 to 10000 nM", "< 100 nM"]

* * *

What IC50 was measured for each of the following?
Test system: NF-κB
Test: NF-κB assay: THP1-NF-κB-LUC cells, LPS-stimulated secreted luciferase
Type: cell-based
Conditions: THP1-NF-κB-LUC cells; compounds 2 hours before LPS (10 ng/mL) for 18 hours; secreted luciferase; read-out: IC50 (NF-κB assay)

Please give IC50, item by item, for the list that follows.
1. CC1Oc2cc(S(=O)(=O)Nc3ccc(OC(F)(F)F)cc3)c(Cl)cc2NC1=O (centres unmarked)
2. Cc1cc2c(cc1S(=O)(=O)Nc1cccc(C)c1C)OCC(=O)N2
3. COc1ccc(N(C)S(=O)(=O)c2cc3c(cc2C)NC(=O)CO3)c(OC)c1
4. Cc1cc2c(cc1S(=O)(=O)Nc1c(C)cccc1C)OCC(=O)N2
5. Cc1cc2c(cc1S(=O)(=O)Nc1ccc(Cl)cc1)OCC(=O)N2

Marked response:
< 0.1 µM
1 to 10 µM
> 10 µM
> 10 µM
< 0.1 µM

* * *

Tested on: NF-κB
Experiment: NF-κB assay: THP1-NF-κB-LUC cells, LPS-stimulated secreted luciferase
Format: cell-based
Details: THP1-NF-κB-LUC cells; compounds 2 hours before LPS (10 ng/mL) for 18 hours; secreted luciferase; read-out: IC50 (NF-κB assay)
pIC50: −log10 of the molar value.
OUTCOME_MEASURE: pIC50

As a guide, the following entries are already answered.
MOLECULE	VALUE
Cc1ccc(Cl)cc1NS(=O)(=O)c1cc(Cl)cc2c1OCC(=O)N2 [BC19170]	5.00 to 6.00
CC1Oc2cc(S(=O)(=O)N3CCN(C)CC3)c(Br)cc2NC1=O (stereo not drawn) [BC19219]	< 5.00
O=c1c(S(=O)(=O)c2cccc(F)c2)c[nH]c2c(F)cccc12 [BC18301]	5.00 to 6.00
O=C1COc2c(cc(Br)cc2S(=O)(=O)NCc2ccc(C(F)(F)F)cc2)N1 [BC19382]	< 5.00
CCc1cccc(NS(=O)(=O)c2cc(S(C)(=O)=O)cc3c2OCC(=O)N3)c1 [BC19487]	6.00 to 7.00
CC1Oc2c(cc(Br)cc2S(=O)(=O)N2CCOCC2)NC1=O (stereo not drawn) [BC19226]	5.00 to 6.00
CCS(=O)(=O)c1cc2c(c(S(=O)(=O)Nc3ccc(C)c(F)c3)c1)OCC(=O)N2 [BC19436]	> 7.00
O=C1COc2c(cc(Cl)cc2S(=O)(=O)Nc2ccccc2)N1 [BC19168]	> 7.00

Moving on to another molecule below.
Exam item: Input Cc1cc2c(cc1S(=O)(=O)Nc1ccc(CC(F)(F)F)cc1)OCC(=O)N2 [BC181315] , output reported pIC50.
Marked response: > 7.00

* * *

Tested on: NF-κB
Assay: NF-κB assay: THP1-NF-κB-LUC cells, LPS-stimulated secreted luciferase
Type: cell-based
Settings: THP1-NF-κB-LUC cells; compounds 2 hours before LPS (10 ng/mL) for 18 hours; secreted luciferase; read-out: IC50 (NF-κB assay)
pIC50: −log10 of the molar value.
What pIC50 was measured for each of the following?

As a guide, the following entries are already answered.
COMPOUND	TARGET_OR_SYSTEM	pIC50
CCS(=O)(=O)c1cc2c(c(S(=O)(=O)Nc3ccc(OC)c(Cl)c3)c1)OCC(=O)N2	NF-κB	6.00 to 7.00
CCCCn1cc(S(=O)(=O)c2ccc(C)cc2)c(=O)c2cc(Cl)ccc21	NF-κB	< 5.00
CS(=O)(=O)c1cc2c(c(S(=O)(=O)Nc3ccc(F)cc3Cl)c1)OCC(=O)N2	NF-κB	6.00 to 7.00
CCC1Oc2cc(S(=O)(=O)Nc3cccc(C(C)=O)c3)c(Cl)cc2NC1=O (centres unmarked)	NF-κB	6.00 to 7.00
CN(C)c1cccc2cc(S(=O)(=O)c3ccccc3)cnc12	NF-κB	< 5.00
O=c1c(S(=O)(=O)c2ccc(F)c(F)c2)c[nH]c2ccc(Cl)nc12	NF-κB	< 5.00
COc1ccc(OC)c2c(=O)c(S(=O)(=O)c3ccc(F)c(F)c3)c[nH]c12	NF-κB	5.00 to 6.00
Cc1ccc([S+]([O-])c2ccc3c(=O)[nH]ccc3c2)cc1 (centres unmarked)	NF-κB	< 5.00
COc1ccc(NS(=O)(=O)c2cc3c(cc2C)N(C(C)=O)CCO3)cc1	NF-κB	< 5.00
Nc1cccc2cc(S(=O)(=O)c3ccccc3)cnc12	NF-κB	< 5.00

Please give pIC50, item by item, for the list that follows.
1. CCC1Oc2c(cc(Cl)cc2S(=O)(=O)Nc2ccc(C)cc2)NC1=O (centres unmarked)
2. CC(C)NS(=O)(=O)c1cc2c(cc1Cl)NC(=O)C(C)O2 (centres unmarked)
3. CCC1Oc2c(cc(Br)cc2S(=O)(=O)NCc2ccc(F)cc2F)NC1=O (centres unmarked)

Marked response:
1: > 7.00; 2: < 5.00; 3: > 7.00
